So I've got a bunch of sequences here, and I need their self-aminoacylation values.
# Test system: biotinyl-Phe-oxazolone
# PROTOCOL_TEXT: self-aminoacylation, catalytic enhancement (BFO) (fold over background); higher = more active; k-Seq, kA / k0A0; sequences stand for … in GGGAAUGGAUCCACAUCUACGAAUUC…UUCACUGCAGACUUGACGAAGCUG
Variants at the floor of the assay were thinned out.
Reply: number alone, nothing else.

Give biotinyl-Phe-oxazolone self-aminoacylation for CCACACUUAAUGCAAUCGGUC [Fam1B.1 aminoacylation ribozyme variant]
0.949

Give biotinyl-Phe-oxazolone self-aminoacylation for AUUACGCUGGUCAUCGAGAGA [Fam2.1 aminoacylation ribozyme variant]
1.36

Give biotinyl-Phe-oxazolone self-aminoacylation for AUCACCCAGGUCAUCGAGUGA [Fam2.1 aminoacylation ribozyme variant]
30.4

Give biotinyl-Phe-oxazolone self-aminoacylation for CCACACGUCAAGAAAUCGGUC [Fam1B.1 aminoacylation ribozyme variant]
1.01

Give biotinyl-Phe-oxazolone self-aminoacylation for AUUACCAUGGUCAUAGAGUGA [Fam2.1 aminoacylation ribozyme variant]
37.6

Give biotinyl-Phe-oxazolone self-aminoacylation for CAGUUUGCAAAUAGUCGCAAG [Fam3.1 aminoacylation ribozyme variant]
2.37

Give biotinyl-Phe-oxazolone self-aminoacylation for CCACAUUUCAAGCAAUCGGUU [Fam1B.1 aminoacylation ribozyme variant]
1.25

Give biotinyl-Phe-oxazolone self-aminoacylation for AUUCACCUAGUUCAUUGGGUG [Fam2.2 aminoacylation ribozyme variant]
18.9

Give biotinyl-Phe-oxazolone self-aminoacylation for AAGUUUGCCAAUGGUCGCAAG [Fam3.1 aminoacylation ribozyme variant]
0.499

Give biotinyl-Phe-oxazolone self-aminoacylation for CUGCUUCAAACAAUCCGUCUG [Fam1A.1 aminoacylation ribozyme variant]
2.71

Give biotinyl-Phe-oxazolone self-aminoacylation for AUUACCGUGGUCAACGAGUGA [Fam2.1 aminoacylation ribozyme variant]
36.7

Give biotinyl-Phe-oxazolone self-aminoacylation for CCACACUUCAAGAAAUCGCUC [Fam1B.1 aminoacylation ribozyme variant]
0.492

Give biotinyl-Phe-oxazolone self-aminoacylation for CUACUUCAAACAUUCUGUCUG [Fam1A.1 aminoacylation ribozyme variant]
0.851

Give biotinyl-Phe-oxazolone self-aminoacylation for AAGCUUGCUAAGAGUCGCAAG [Fam3.1 aminoacylation ribozyme variant]
3.44

Give biotinyl-Phe-oxazolone self-aminoacylation for CUACUUCAAGUAAUCGGUCUG [Fam1A.1 aminoacylation ribozyme variant]
9.14

Give biotinyl-Phe-oxazolone self-aminoacylation for CUCCUUCAAACAAUCGGCCUG [Fam1A.1 aminoacylation ribozyme variant]
131

Give biotinyl-Phe-oxazolone self-aminoacylation for AUGCACCUAGGACAUCGGGUG [Fam2.2 aminoacylation ribozyme variant]
19.4

Give biotinyl-Phe-oxazolone self-aminoacylation for AUUACCCUAGUCAUCGGGUGA [Fam2.1 aminoacylation ribozyme variant]
49.2

Give biotinyl-Phe-oxazolone self-aminoacylation for AUUCACCUAGUACAUCGGGUG [Fam2.2 aminoacylation ribozyme variant]
10.4

Give biotinyl-Phe-oxazolone self-aminoacylation for AGUACUCUGGUCAUCGAGUGA [Fam2.1 aminoacylation ribozyme variant]
11.4

Give biotinyl-Phe-oxazolone self-aminoacylation for CUACUUCAAACAAUCGGUAAG [Fam1A.1 aminoacylation ribozyme variant]
1.29

Give biotinyl-Phe-oxazolone self-aminoacylation for AAGUGUUCUAAUAGUCGCAAG [Fam3.1 aminoacylation ribozyme variant]
2.39

----------
So I've got a bunch of sequences here, and I need their self-aminoacylation values.
# Tested on: biotinyl-Val-oxazolone
# PROTOCOL_TEXT: self-aminoacylation, catalytic enhancement (BVO) (fold over background); higher = more active; k-Seq, kA / k0A0; sequences stand for … in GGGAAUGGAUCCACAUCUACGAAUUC…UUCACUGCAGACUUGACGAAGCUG
Variants at the floor of the assay were thinned out.

What measured self-aminoacylation goes with AUCCACCUAGGUCAUCGGUUG [Fam2.2 aminoacylation ribozyme variant] ?
1.52

What measured self-aminoacylation goes with CAACACUGCAAGCAAUCGGUC [Fam1B.1 aminoacylation ribozyme variant] ?
1.24

What measured self-aminoacylation goes with ACGUUUGGUAAUAGUCGCAAG [Fam3.1 aminoacylation ribozyme variant] ?
1.55

What measured self-aminoacylation goes with AAUACCCUGGUCAUCGAGGGA [Fam2.1 aminoacylation ribozyme variant] ?
1.94

What measured self-aminoacylation goes with CUACAUCAAAUAAUCGGUCUG [Fam1A.1 aminoacylation ribozyme variant] ?
0.864

What measured self-aminoacylation goes with AUAACCCUGGUCAUCGAGGGA [Fam2.1 aminoacylation ribozyme variant] ?
1.43

What measured self-aminoacylation goes with AAGUUUCCUAAUCGUCGCAAG [Fam3.1 aminoacylation ribozyme variant] ?
0.893

What measured self-aminoacylation goes with CCAGACUUCAAGCAUUCGGUC [Fam1B.1 aminoacylation ribozyme variant] ?
2.16

What measured self-aminoacylation goes with AAUUUCGCUAAUAGUCGCAAG [Fam3.1 aminoacylation ribozyme variant] ?
1.88

What measured self-aminoacylation goes with AUUACGCUGGUAAUCGAGUGA [Fam2.1 aminoacylation ribozyme variant] ?
2.77

What measured self-aminoacylation goes with AUUACCAUGGUCACCGAGUGA [Fam2.1 aminoacylation ribozyme variant] ?
3.41

What measured self-aminoacylation goes with AUUCACCUAGGUCAUGGCGUG [Fam2.2 aminoacylation ribozyme variant] ?
5.9

What measured self-aminoacylation goes with ACACACUUCAGGCAAUCGGUC [Fam1B.1 aminoacylation ribozyme variant] ?
1.44

What measured self-aminoacylation goes with CCAUACUUCAAGCAAUCCGUC [Fam1B.1 aminoacylation ribozyme variant] ?
1.12

What measured self-aminoacylation goes with CCACACUUCUAGCAAUAGGUC [Fam1B.1 aminoacylation ribozyme variant] ?
0.666

What measured self-aminoacylation goes with AUUUACCUAGGUCAACGGGUG [Fam2.2 aminoacylation ribozyme variant] ?
2.26

What measured self-aminoacylation goes with CCACACUUCACGGAAUCGGUC [Fam1B.1 aminoacylation ribozyme variant] ?
1.39

What measured self-aminoacylation goes with AAGUGUGCUAAUAGUCCCAAG [Fam3.1 aminoacylation ribozyme variant] ?
1.28

What measured self-aminoacylation goes with UUACAUCAAACAAUCGGUCUG [Fam1A.1 aminoacylation ribozyme variant] ?
1.17

What measured self-aminoacylation goes with AUUCCCCUAGGUCAUCAGGUG [Fam2.2 aminoacylation ribozyme variant] ?
6.96

What measured self-aminoacylation goes with AAGUUGGCUAAUGGUCGCAAG [Fam3.1 aminoacylation ribozyme variant] ?
1.4

What measured self-aminoacylation goes with AUAACCCUGGUCAACGAGUGA [Fam2.1 aminoacylation ribozyme variant] ?
3.33

What measured self-aminoacylation goes with AUUACCAUGGUCAUUGAGUGA [Fam2.1 aminoacylation ribozyme variant] ?
5.51

What measured self-aminoacylation goes with CUUACCCUGGUCAUCGAGUGA [Fam2.1 aminoacylation ribozyme variant] ?
11

What measured self-aminoacylation goes with CUACUUCAAACCACCGGUCUG [Fam1A.1 aminoacylation ribozyme variant] ?
0.954

What measured self-aminoacylation goes with AAGUUUGCUAAUUGUCUCAAG [Fam3.1 aminoacylation ribozyme variant] ?
0.881

What measured self-aminoacylation goes with CAGUGUGCUAAUAGUCGCAAG [Fam3.1 aminoacylation ribozyme variant] ?
1.46

----------
# System: biotinyl-Ile-oxazolone
# PROTOCOL_TEXT: self-aminoacylation, catalytic enhancement (BIO) (fold over background); higher = more active; k-Seq, kA / k0A0; sequences stand for … in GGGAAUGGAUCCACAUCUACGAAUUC…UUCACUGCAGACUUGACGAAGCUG
Fewer inactive variants are shown than the library holds.
So I've got a bunch of sequences here, and I need their self-aminoacylation values.

What measured self-aminoacylation goes with AUUAGCCCGGUCAUCGAGUGA [Fam2.1 aminoacylation ribozyme variant] ?
3.45

What measured self-aminoacylation goes with AGGUUAGCUAAUAGUCGCAAG [Fam3.1 aminoacylation ribozyme variant] ?
1.97

What measured self-aminoacylation goes with AGUACCCUGGUGAUCGAGUGA [Fam2.1 aminoacylation ribozyme variant] ?
2.76

What measured self-aminoacylation goes with AUUACCCAGGUCAUCGAGGGA [Fam2.1 aminoacylation ribozyme variant] ?
1.36

----------
# Test system: biotinyl-Met-oxazolone
# PROTOCOL_TEXT: self-aminoacylation, catalytic enhancement (BMO) (fold over background); higher = more active; k-Seq, kA / k0A0; sequences stand for … in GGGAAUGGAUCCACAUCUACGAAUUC…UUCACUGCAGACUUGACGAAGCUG
Fewer inactive variants are shown than the library holds.
Label scheme for self-aminoacylation: lower than 1 is 0 (no), 1 and above is 1 (yes).

Check the entry AUCACCCUCGUCAUCGAGUGA [Fam2.1 aminoacylation ribozyme variant] : does self-aminoacylation equal or exceed 1?
1 (yes)

Check the entry AUUCACCCAGGUCAUCGGGUC [Fam2.2 aminoacylation ribozyme variant] : does self-aminoacylation equal or exceed 1?
1 (yes)

Check the entry AUCCACCUAGGUAAUCGGGUG [Fam2.2 aminoacylation ribozyme variant] : does self-aminoacylation equal or exceed 1?
1 (yes)

Check the entry AAGUUUGCUAAUAGUCCAAAG [Fam3.1 aminoacylation ribozyme variant] : does self-aminoacylation equal or exceed 1?
1 (yes)

Check the entry CUACUUCAAACAAUCCAUCUG [Fam1A.1 aminoacylation ribozyme variant] : does self-aminoacylation equal or exceed 1?
0 (no)

Check the entry CCAAACUUCAAGCAAUUGGUC [Fam1B.1 aminoacylation ribozyme variant] : does self-aminoacylation equal or exceed 1?
0 (no)

Check the entry CAACUUCAAACAAUGGGUCUG [Fam1A.1 aminoacylation ribozyme variant] : does self-aminoacylation equal or exceed 1?
0 (no)
